- assay-text: DERA cleavage (retroaldol) coupled assay, unnatural substrate DR
- Assay type: biochemical
- assay-conditions: DR compared to DRP, read
Parameter ratio of specificity constants {kcat/KM (DR)}/{kcat/KM (DRP)}: see the listing below.

>  <molecule>
R207E: DERA variant, basic phosphate binding pocket residue Arg207 mutated to Glu (protein, UniProt P0A6L0 1-259, looked up, variant R207E) Deoxyribose-phosphate aldolase: MTDLKASSLRALKLMDLTTLNDDDTDEKVIALCHQAKTPVGNTAAICIYPRFIPIARKTLKEQGTPEIRIATVTNFPHGNDDIDIALAETRAAIAYGADEVDVVFPYRALMAGNEQVGFDLVKACKEACAAANVLLKVIIETGELKDEALIRKASEISIKAGADFIKTSTGKVAVNATPESARIMMEVIRDMGVEKTVGFKPAGGVETAEDAQKYLAIADELFGADWADARHYRFGASSLLASLLKALGHGDGKSASSY

>  <result>
2.2

$$$$

Suppose we examine the molecule K172E: DERA variant, basic phosphate binding pocket residue Lys172 mutated to Glu (protein, UniProt P0A6L0 1-259, looked up, variant K172E) Deoxyribose-phosphate aldolase: MTDLKASSLRALKLMDLTTLNDDDTDEKVIALCHQAKTPVGNTAAICIYPRFIPIARKTLKEQGTPEIRIATVTNFPHGNDDIDIALAETRAAIAYGADEVDVVFPYRALMAGNEQVGFDLVKACKEACAAANVLLKVIIETGELKDEALIRKASEISIKAGADFIKTSTGEVAVNATPESARIMMEVIRDMGVEKTVGFKPAGGVRTAEDAQKYLAIADELFGADWADARHYRFGASSLLASLLKALGHGDGKSASSY ; what ratio of specificity constants {kcat/KM (DR)}/{kcat/KM (DRP)} value has been reported?
0.27

Suppose we examine the molecule G205E: DERA variant, neutral phosphate binding pocket residue Gly205 replaced with Glu (protein, UniProt P0A6L0 1-259, looked up, variant G205E) Deoxyribose-phosphate aldolase: MTDLKASSLRALKLMDLTTLNDDDTDEKVIALCHQAKTPVGNTAAICIYPRFIPIARKTLKEQGTPEIRIATVTNFPHGNDDIDIALAETRAAIAYGADEVDVVFPYRALMAGNEQVGFDLVKACKEACAAANVLLKVIIETGELKDEALIRKASEISIKAGADFIKTSTGKVAVNATPESARIMMEVIRDMGVEKTVGFKPAGEVRTAEDAQKYLAIADELFGADWADARHYRFGASSLLASLLKALGHGDGKSASSY ; what ratio of specificity constants {kcat/KM (DR)}/{kcat/KM (DRP)} value has been reported?
3.1 × 10^−3
